condition-notes: in water, 288.15 K
assay-endpoint: solubility (mole fraction)

>>> endpoint_value("O=Cc1ccc(O)c(Br)c1")
"9.02e-05"

----------
condition-notes: in water, 293.15 K
assay-endpoint: solubility (mole fraction)

>>> endpoint_value("O=Cc1ccc(O)c(Br)c1")
0.000116

----------
condition-notes: in n-octanol, 298.15 K
assay-endpoint: solubility (mole fraction)

>>> endpoint_value("O=Cc1ccc(O)c(Br)c1")
0.0226

----------
condition-notes: in isobutanol, 298.15 K
assay-endpoint: solubility (mole fraction)

>>> endpoint_value("O=Cc1ccc(O)c(Br)c1")
0.0183

----------
condition-notes: in n-propanol, 303.15 K
assay-endpoint: solubility (mole fraction)

>>> endpoint_value("O=Cc1ccc(O)c(Br)c1")
0.0191

----------
condition-notes: in ethanol, 313.15 K
assay-endpoint: solubility (mole fraction)

>>> endpoint_value("O=Cc1ccc(O)c(Br)c1")
0.0219

----------
condition-notes: in acetonitrile, 318.15 K
assay-endpoint: solubility (mole fraction)

>>> endpoint_value("O=Cc1ccc(O)c(Br)c1")
0.0238

----------
condition-notes: in n-octanol, 283.15 K
assay-endpoint: solubility (mole fraction)

>>> endpoint_value("O=Cc1ccc(O)c(Br)c1")
0.0138

----------
condition-notes: in ethyl acetate, 313.15 K
assay-endpoint: solubility (mole fraction)

>>> endpoint_value("O=Cc1ccc(O)c(Br)c1")
0.0287

----------
condition-notes: in n-propanol, 318.15 K
assay-endpoint: solubility (mole fraction)

>>> endpoint_value("O=Cc1ccc(O)c(Br)c1")
0.0308

----------
condition-notes: in cyclohexane, 318.15 K
assay-endpoint: solubility (mole fraction)

>>> endpoint_value("O=Cc1ccc(O)c(Br)c1")
0.00139

----------
condition-notes: in ethylene glycol, 298.15 K
assay-endpoint: solubility (mole fraction)

>>> endpoint_value("O=Cc1ccc(O)c(Br)c1")
0.0107

----------
condition-notes: in n-pentanol, 278.15 K
assay-endpoint: solubility (mole fraction)

>>> endpoint_value("O=Cc1ccc(O)c(Br)c1")
0.0115

----------
condition-notes: in isobutanol, 308.15 K
assay-endpoint: solubility (mole fraction)

>>> endpoint_value("O=Cc1ccc(O)c(Br)c1")
0.0251

----------
condition-notes: in isobutanol, 288.15 K
assay-endpoint: solubility (mole fraction)

>>> endpoint_value("O=Cc1ccc(O)c(Br)c1")
0.0131

----------
condition-notes: in methanol, 288.15 K
assay-endpoint: solubility (mole fraction)

>>> endpoint_value("O=Cc1ccc(O)c(Br)c1")
0.00751

----------
condition-notes: in water, 278.15 K
assay-endpoint: solubility (mole fraction)

>>> endpoint_value("O=Cc1ccc(O)c(Br)c1")
"5.93e-05"

----------
condition-notes: in DMSO, 293.15 K
assay-endpoint: solubility (mole fraction)

>>> endpoint_value("O=Cc1ccc(O)c(Br)c1")
0.0177

----------
condition-notes: in isobutanol, 313.15 K
assay-endpoint: solubility (mole fraction)

>>> endpoint_value("O=Cc1ccc(O)c(Br)c1")
0.0293

----------
condition-notes: in n-octanol, 288.15 K
assay-endpoint: solubility (mole fraction)

>>> endpoint_value("O=Cc1ccc(O)c(Br)c1")
0.0162

----------
condition-notes: in DMF, 318.15 K
assay-endpoint: solubility (mole fraction)

>>> endpoint_value("O=Cc1ccc(O)c(Br)c1")
0.0426

----------
condition-notes: in n-propanol, 298.15 K
assay-endpoint: solubility (mole fraction)

>>> endpoint_value("O=Cc1ccc(O)c(Br)c1")
0.0162

----------
condition-notes: in ethyl acetate, 298.15 K
assay-endpoint: solubility (mole fraction)

>>> endpoint_value("O=Cc1ccc(O)c(Br)c1")
0.0176

----------
condition-notes: in water, 323.15 K
assay-endpoint: solubility (mole fraction)

>>> endpoint_value("O=Cc1ccc(O)c(Br)c1")
0.000493

----------
condition-notes: in n-octanol, 308.15 K
assay-endpoint: solubility (mole fraction)

>>> endpoint_value("O=Cc1ccc(O)c(Br)c1")
0.0314

----------
condition-notes: in DMF, 303.15 K
assay-endpoint: solubility (mole fraction)

>>> endpoint_value("O=Cc1ccc(O)c(Br)c1")
0.0275

----------
condition-notes: in n-propanol, 323.15 K
assay-endpoint: solubility (mole fraction)

>>> endpoint_value("O=Cc1ccc(O)c(Br)c1")
0.0361

----------
condition-notes: in ethylene glycol, 283.15 K
assay-endpoint: solubility (mole fraction)

>>> endpoint_value("O=Cc1ccc(O)c(Br)c1")
0.00666

----------
condition-notes: in ethyl acetate, 293.15 K
assay-endpoint: solubility (mole fraction)

>>> endpoint_value("O=Cc1ccc(O)c(Br)c1")
0.015

----------
condition-notes: in acetonitrile, 308.15 K
assay-endpoint: solubility (mole fraction)

>>> endpoint_value("O=Cc1ccc(O)c(Br)c1")
0.0179

----------
condition-notes: in DMF, 293.15 K
assay-endpoint: solubility (mole fraction)

>>> endpoint_value("O=Cc1ccc(O)c(Br)c1")
0.02

----------
condition-notes: in ethyl acetate, 308.15 K
assay-endpoint: solubility (mole fraction)

>>> endpoint_value("O=Cc1ccc(O)c(Br)c1")
0.0244

----------
condition-notes: in ethylene glycol, 323.15 K
assay-endpoint: solubility (mole fraction)

>>> endpoint_value("O=Cc1ccc(O)c(Br)c1")
0.0252

----------
condition-notes: in n-propanol, 288.15 K
assay-endpoint: solubility (mole fraction)

>>> endpoint_value("O=Cc1ccc(O)c(Br)c1")
0.0117

----------
condition-notes: in methanol, 298.15 K
assay-endpoint: solubility (mole fraction)

>>> endpoint_value("O=Cc1ccc(O)c(Br)c1")
0.0103

----------
condition-notes: in isopropanol, 278.15 K
assay-endpoint: solubility (mole fraction)

>>> endpoint_value("O=Cc1ccc(O)c(Br)c1")
0.0079

----------
condition-notes: in n-pentanol, 293.15 K
assay-endpoint: solubility (mole fraction)

>>> endpoint_value("O=Cc1ccc(O)c(Br)c1")
0.0181

----------
condition-notes: in n-pentanol, 288.15 K
assay-endpoint: solubility (mole fraction)

>>> endpoint_value("O=Cc1ccc(O)c(Br)c1")
0.0153

----------
condition-notes: in n-butanol, 303.15 K
assay-endpoint: solubility (mole fraction)

>>> endpoint_value("O=Cc1ccc(O)c(Br)c1")
0.023

----------
condition-notes: in n-butanol, 318.15 K
assay-endpoint: solubility (mole fraction)

>>> endpoint_value("O=Cc1ccc(O)c(Br)c1")
0.0364

----------
condition-notes: in ethylene glycol, 303.15 K
assay-endpoint: solubility (mole fraction)

>>> endpoint_value("O=Cc1ccc(O)c(Br)c1")
0.0126

----------
condition-notes: in n-pentanol, 318.15 K
assay-endpoint: solubility (mole fraction)

>>> endpoint_value("O=Cc1ccc(O)c(Br)c1")
0.0401

----------
condition-notes: in n-pentanol, 283.15 K
assay-endpoint: solubility (mole fraction)

>>> endpoint_value("O=Cc1ccc(O)c(Br)c1")
0.0132

----------
condition-notes: in DMF, 288.15 K
assay-endpoint: solubility (mole fraction)

>>> endpoint_value("O=Cc1ccc(O)c(Br)c1")
0.0171

----------
condition-notes: in 1,4-dioxane, 288.15 K
assay-endpoint: solubility (mole fraction)

>>> endpoint_value("O=Cc1ccc(O)c(Br)c1")
0.016

----------
condition-notes: in n-butanol, 293.15 K
assay-endpoint: solubility (mole fraction)

>>> endpoint_value("O=Cc1ccc(O)c(Br)c1")
0.0168

----------
condition-notes: in DMF, 313.15 K
assay-endpoint: solubility (mole fraction)

>>> endpoint_value("O=Cc1ccc(O)c(Br)c1")
0.0372

----------
condition-notes: in ethylene glycol, 318.15 K
assay-endpoint: solubility (mole fraction)

>>> endpoint_value("O=Cc1ccc(O)c(Br)c1")
0.0211

----------
condition-notes: in isopropanol, 318.15 K
assay-endpoint: solubility (mole fraction)

>>> endpoint_value("O=Cc1ccc(O)c(Br)c1")
0.0272

----------
condition-notes: in n-pentanol, 323.15 K
assay-endpoint: solubility (mole fraction)

>>> endpoint_value("O=Cc1ccc(O)c(Br)c1")
0.0467

----------
condition-notes: in ethyl acetate, 323.15 K
assay-endpoint: solubility (mole fraction)

>>> endpoint_value("O=Cc1ccc(O)c(Br)c1")
0.0384

----------
condition-notes: in acetonitrile, 313.15 K
assay-endpoint: solubility (mole fraction)

>>> endpoint_value("O=Cc1ccc(O)c(Br)c1")
0.0207

----------
condition-notes: in DMF, 308.15 K
assay-endpoint: solubility (mole fraction)

>>> endpoint_value("O=Cc1ccc(O)c(Br)c1")
0.0321

----------
condition-notes: in ethyl acetate, 318.15 K
assay-endpoint: solubility (mole fraction)

>>> endpoint_value("O=Cc1ccc(O)c(Br)c1")
0.0332

----------
condition-notes: in ethylene glycol, 308.15 K
assay-endpoint: solubility (mole fraction)

>>> endpoint_value("O=Cc1ccc(O)c(Br)c1")
0.0149

----------
condition-notes: in isopropanol, 313.15 K
assay-endpoint: solubility (mole fraction)

>>> endpoint_value("O=Cc1ccc(O)c(Br)c1")
0.0235

----------
condition-notes: in isobutanol, 323.15 K
assay-endpoint: solubility (mole fraction)

>>> endpoint_value("O=Cc1ccc(O)c(Br)c1")
0.0386
